tested on: ACHN renal; test: NCI-60 one-dose screen, 48 h; conditions: 10 µM unless noted
About 83,000 compounds went through this panel and 20% of them were active in at least one assay; those are over-represented in the sample as a whole. The source made the active and inactive calls. Rule for the calls: active = growth percent below 10; inactive = the rest.
Would you mind answering with one of these outcomes? active, inactive

Q. Answer briefly: the call reported for CCCNCCC(C)=O in this assay.
A. inactive

Q. Per the records of this test, what outcome belongs to CCN(C(=O)CCl)C(C)(C)C(SSSC(c1ccc(Cl)cc1)C(C)(C)N(CC)C(=O)CCl)c1ccc(Cl)cc1 (stereo unspecified) ?
A. inactive

Q. Field: outcome | Entry: NC(N)=N/N=C/c1ccc(Cl)cc1
A. inactive

Q. What is the recorded call for this compound in the test? CC1(C)OC2OC3C(CN)OC(c4ccccc4)OC3C2O1 (stereo unspecified)
A. inactive

Q. Please share the test call associated with COc1ccc(/C=C/C(=O)CCC(=O)O)cc1OC .
A. inactive

Q. Which outcome was assigned to COc1cc(Nc2ncccc2/C=C/C(=O)c2cc(OC)c(OC)c(OC)c2)cc(OC)c1OC in this test?
A. inactive

Q. Hi team, can someone confirm the assay call for Clc1ccccc1CNc1c2ccccc2nc2ccccc12 ?
A. inactive

Q. Test call for this compound, please: COc1cccc(/C(C)=N/NC(=O)CSc2nc3ccccc3c(=O)n2CCc2ccc(S(N)(=O)=O)cc2)c1
A. inactive

Q. What was the test verdict on CCCCCCCCCCCCCCCCCC(=O)[O][Sn]([CH2]CCC)([CH2]CCC)[CH2]CCC ?
A. active

Q. Status in this test for C/C(=N\NC(=O)CSc1nc2ccccc2c(=O)n1CCc1ccc(S(N)(=O)=O)cc1)c1ccc(Br)cc1 ?
A. inactive

Q. Assay result, entry CCOC(=O)Cn1c(-c2nonc2NC(=O)c2ccccc2F)nc2ccccc21 — outcome?
A. inactive

Q. Per the records of this test, what outcome belongs to O=C1CCCN1C1CCN2CCCc3cccc1c32 (stereo unspecified) ?
A. inactive

Q. For this compound, state the assay outcome: C=CCOc1ccc2c(C)cc(=O)oc2c1
A. inactive

Q. Dear colleague, could you share the recorded outcome for O=[N+]([O-])c1ccc(Sc2nc(Cl)nc(NC3CCCC3)n2)cc1 when you have a moment?
A. active

Q. I'd appreciate the recorded outcome for O=C(c1ccccc1)C(CCc1ccccn1)CCc1ccccn1 from this test.
A. inactive

Q. What outcome does the record of this test show for c1coc(CNc2c3ccccc3nc3ccccc23)c1 ?
A. inactive

Q. # outcome recorded in this test, key = C=C(COC(C)=O)[C@H]1CC/C(C)=C/CC/C(C)=C/CC[C@@]2(C)O[C@H]2C1
A. inactive

Q. Could you kindly confirm the outcome this assay logged for COc1ccc(-c2nc3ccccc3n3cccc23)cc1 ?
A. inactive

Q. Answer briefly: the call reported for NC(N)=NC1CCCCC1 in this assay.
A. inactive

Q. Per the assay record, what outcome was assigned to CC(=O)c1ccc(Br)c([N+](=O)[O-])c1 ?
A. inactive

Q. Outcome? COc1ccc(-c2conc2-n2nc(-c3ccccc3)nc2-c2ccccc2)cc1
A. inactive

Q. Name the outcome recorded for CCc1onc(-c2ccc(OC)cc2)c1-c1ccccc1OCCN(CC)CC in the assay.
A. inactive

Q. Kindly provide the recorded test outcome for the following compound: O=C(NO)c1ccc(CNc2cccc3nc(C4CC4)n(-c4ccccc4)c(=O)c23)cc1
A. active

Q. // outcome(item) with item = CCCCCCCCCCCCCC1=NC(C)(C)CN1C(C)C
A. active

Q. Could you please tell me the result logged for Nc1c(C(=O)Nc2ccccc2)sc2nc3c(cc12)C(=O)CCC3 in this assay?
A. inactive

Q. What call does the record list for CCOC(=O)C(Cc1ccccc1)n1c(O)c(/C=N/c2ncc(Cc3ccc(Cl)cc3Cl)s2)sc1=S (stereo unspecified) ?
A. active

Q. Hi team, can someone confirm the assay call for Cc1ccc(NC(=O)c2sc3nc4c(cc3c2N)C(=O)CCC4)cc1Cl ?
A. inactive

Q. Called result for COc1ccc(-c2nc3c(c(-c4ccc(Cl)cc4)nn3-c3ccccc3)c(-c3ccc(O)cc3)c2C#N)cc1
A. inactive

Q. GET /call?item= COc1ccc2c(c1)OC1=C(C(=O)OC1)C2c1cc(OC)c2c(c1)OCCO2 (stereo unspecified) returns the recorded outcome of this test.
A. inactive

Q. How did this test come out for COc1ccc(-n2nc(C(=O)Nc3ccc(F)cc3)nc2-c2cc(OC)c(OC)c(OC)c2)cc1 ?
A. inactive

Q. // return assay outcome for CCN1C(=O)N(CC)C2C1NN=c1s/c(=C\c3ccco3)c(=O)n12 (stereo unspecified)
A. inactive

Q. Per the records of this test, what outcome belongs to COC(=O)c1ccc2c(c1)nc(-c1cc3ccccc3[nH]c1=O)n2-c1cc(C(C)(C)C)[nH]n1 ?
A. inactive

Q. Lab log entry: COc1ccc(-c2ccc(-c3ccc(C(=N)N)s3)s2)cc1 — outcome as called in the assay?
A. active

Q. So what was the verdict on O=C(Nc1ccncc1)C(=O)c1cn(S(=O)(=O)c2cccc(Cl)c2F)c2ccccc12 in this test?
A. inactive

Q. What did the test return for COc1ccccc1CNCCCN1C(=O)c2ccc3c4c(ccc(c24)C1=O)C(=O)N(CCCOCCCCOCCCN)C3=O ?
A. active

Q. Hi, sorry to bother you, what did the test record for CCC1=CC2CN(C1)Cc1c([nH]c3ccccc13)[C@@](C(=O)OC)(c1cc3c(cc1OC)N(C)[C@H]1[C@@](O)(C(=O)OC)[C@H](OC(C)=O)[C@]4(CC)C=CCN5CC[C@]31[C@@H]54)C2 (stereo partly specified) ?
A. inactive

Q. Identify the outcome logged in this assay for the compound shown: c1cc2c(cc1-c1cnc3nonc3n1)OCO2
A. inactive

Q. Write down the call the test reported for this compound. Item: COC(=O)OC1C(O[C@H]2C[C@H]3[C@@H]4CC=C5C[C@@H](O)CC[C@]5(C)[C@H]4CC[C@]3(C)[C@H]2[C@H](C)C(=O)CCC(C)C)OCC(O)C1OC1OCC(O)C(O)C1OC(=O)c1ccc(OC)cc1 (stereo partly specified)
A. inactive

Q. Please share the test call associated with c1ccc(CCn2cccc2)nc1 .
A. inactive

Q. Just curious, what result did CCCCOc1nc2ccc(C)cc2cc1/C=C/C(=O)/C=C(O)/C=C/c1cc2cc(C)ccc2nc1OCCCC get here?
A. inactive

Q. Record lookup: outcome of this test for CCCCCCCCCCCCCCCCCC(=O)OCCCCCCCCCCCCC ?
A. inactive

----------
System: HCC-2998 colon
Assay: NCI-60 one-dose screen, 48 h (100 = growth as untreated, 0 = no growth, -100 = all killed)
Conditions: 10 µM unless noted
Description: Growth inhibition of the HCC-2998 human tumor cell line is measured as a screen for anti-cancer activity. Cells are grown in 96 well plates and exposed to the test compound for 48 hours. Compounds are tested at a single concentration, which is 10^-5 M for most compounds. The reported endpoint is percent growth (GI% or GIPRCNT), where numbers from 0 - 100% represent growth inhibition, and numbers from -100% - 0 represent cell death. For example, a value of 40 represents 60% growth inhibition. […]
Compounds without any hit were thinned out: in the full panel of roughly 83,000, 20% have a hit.
Simple rule here: growth less than 80% is t, otherwise f.

Q. Is growth of CCCCCCCCCCCCCC strictly below 80%?
A. f

Q. For this compound, is growth lower than 80%? CC(=O)Oc1ccccc1C(=O)Nc1ncc([N+](=O)[O-])s1
A. t

Q. Lab log: compare recorded growth with 80%; is it strictly lower for c1cc(C2CCCCC2)ccc1-c1cnc2nonc2n1 ?
A. t

Q. Input O=C1SCN(Cc2ccccc2)CN1Cc1ccccc1 ; condition: growth strictly below 80%. Does it hold?
A. f

Q. Take the compound COc1ccccc1-[n+]1cc(-c2ccc(-c3ccccc3)cc2)n2c1CCCCC2 and say whether its growth is less than 80%.
A. t

Q. Threshold test, growth < 80%: COc1cc(Nc2ncccc2/C=C/C(=O)c2cc(OC)c(OC)c(OC)c2)cc(OC)c1OC
A. f

Q. Determine whether this compound shows growth lower than 80% (ties excluded): CC1(C)CN(CCNc2nccc(-c3c(-c4cccc(O)c4)nc4sccn34)n2)S(=O)(=O)N1
A. f

Q. For Nc1c(Br)cc2c(c1Br)Cc1cc(Cl)ccc1-2 , is the recorded growth below the cut-off of 80%?
A. f

Q. Is the reported growth for Cc1ccc(Nc2cc(Cl)c([N+](=O)[O-])cc2[N+](=O)[O-])cc1 strictly below 80%?
A. t

Q. In the record for N/N=C(\C(=N\N)c1ccccc1)c1ccccc1 , is growth less than 80%?
A. f

Q. Decide: growth of CC(C)(CCc1ccccn1)C(=O)CCCc1ccccn1 strictly below 80%?
A. f

Q. Is growth of C[C@H](NC(=O)c1snnc1C1CC1)c1c(F)cccc1Cl strictly below 80%?
A. f

Q. Hello, is growth of the following compound strictly smaller than 80%? COc1cnc2c(c1)C(=O)c1c-2n(CCCN2CCN(C)CC2)c(=O)c2cc(Cl)ccc12
A. t

Q. Identify whether the compound O=C(O)c1ccccc1Oc1cc(-c2ccco2)nc(OCCN2CCOCC2)n1 records growth below 80%.
A. f

Q. # strict comparison: is reported growth < 80%? input = CCCCCCCCCCCCCCCC1=NCCN1
A. t

Q. Just wondering, is growth of CNCCCn1c2c(c3ccc(Cl)cc3c1=O)C(=O)c1cc(OC)cnc1-2 below 80%?
A. t

Q. # check: growth < 80% for O=c1c2cc(Br)cc(Br)c2nc(-c2ccc(Cl)cc2)n1/N=C/c1cccc(F)c1
A. f

Q. Is it true that growth reported for COc1ccc(-c2nc3ccccc3n3cccc23)cc1 is less than 80%?
A. f

Q. Consider the compound O=C(CC(=O)C(F)(F)C(F)(F)C(F)(F)F)c1cc2ccccc2o1 . Is its growth strictly less than 80%?
A. f

Q. Here's an entry: COc1cc2ncnc(Nc3ccc(S(=O)(=O)Nc4cc(C)on4)cc3)c2cc1OCCCN1CCN(c2ccc([N+](=O)[O-])cc2)CC1 . Is its growth below 80%?
A. f

Q. Does CCOC(=O)C1C(=O)C=C(c2cc(OC)c(OC)c(OC)c2)CC1c1sc(N(C)Cc2ccccc2)nc1Cl (configuration not stated) have growth strictly under 80%?
A. f
